Measured values drawn from patent US7148232B2 for this set.

# Tested on: tumor necrosis factor (α)
# Experimental protocol: Cytokine induction in human cells: tumor necrosis factor (α) secreted by PBMCs (ELISA)
# Assay type: cell-based
# Condition label: Dose Concentration 10 μM, 18 to 24 hours
Structures can show the parent of a compound that is named as a salt.
Measured property: Tumor Necrosis Factor Induction

INSERT INTO measurements (compound, measurement) VALUES
  ('CCCc1nc2c(N)nc3cc(OC)ccc3c2s1 [Example 64]', '+'),
  ('CC(C)c1nc2c(N)nc3ccccc3c2s1 [Example 20]', '+'),
  ('CCCCc1nc2c(N)nc3cccnc3c2s1 [Example 58]', '+'),
  ('CCCc1nc2c(N)nccc2s1 [Example 62, Trifluoroacetate]', '−'),
  ('CCCc1nc2c(N)nc3cc(Cl)ccc3c2s1 [Example 63]', '+'),
  ('Nc1nc2ccccc2c2sc(CCc3ccccc3)nc12 [Example 24]', '−');

###

# Test system: tumor necrosis factor (α)
# Experimental protocol: Cytokine induction in human cells: tumor necrosis factor (α) secreted by PBMCs (ELISA)
# Assay type: cell-based
# Condition label: Dose Concentration 0.37 μM, 18 to 24 hours
Counter-ions that a name gives are not always drawn.
Measured property: Tumor Necrosis Factor Induction

INSERT INTO assay_data (compound, measurement) VALUES
  ('CCCCc1nc2c(N)nc3cccnc3c2s1 [Example 58]', '+'),
  ('CCCc1nc2c(N)nc3cc(Cl)ccc3c2s1 [Example 63]', '+'),
  ('CCCc1nc2c(N)nc3ccc(N)cc3c2s1 [Example 42]', '−'),
  ('CC(C)c1nc2c(N)nc3ccccc3c2s1 [Example 20]', '−'),
  ('Nc1nc2ccccc2c2sc(CCc3ccccc3)nc12 [Example 24]', '−'),
  ('Nc1nc2ccccc2c2sc(N3CCOCC3)nc12 [Example 53]', '−'),
  ('CCCc1nc2c(N)nc3cc(OC)ccc3c2s1 [Example 64]', '+'),
  ('CCCCc1nc2c(N)nc3ccccc3c2s1 [Example 18, 2-Butylthiazolo[4,5-c]quinolin-4-amine]', '+'),
  ('CCCc1nc2c(N)nc3cccnc3c2s1 [Example 60]', '±'),
  ('CCCc1nc2c(N)nccc2s1 [Example 62, Trifluoroacetate]', '−');

###

# System: interferon (α)
# Experimental protocol: Interferon (α) induction in human cells (in vitro human blood cell system, interferon by bioassay)
# Type: cell-based
# Condition label: Dose Concentration 10.0 μg/mL; human PBM's, 48 hours
Measured property: Interferon (α) Induction in Human Cells

INSERT INTO results (structure_smiles_string, measurement) VALUES
  ('Nc1nc2ccccc2c2sc(/C=C/c3ccccc3)nc12', '+'),
  ('CC(C)c1nc2c(N)nc3ccccc3c2s1', '+'),
  ('Nc1nc2ccccc2c2sc(N3CCOCC3)nc12', '−'),
  ('Cl.Nc1nc2ccccc2c2scnc12.O', '+'),
  ('CCCc1nc2c(N)nc3cc(C(F)(F)F)ccc3c2s1', '+'),
  ('Nc1nc2ccccc2c2sc(CCc3ccccc3)nc12', '+');

###

# Tested on: interferon (α)
# Experimental protocol: Interferon (α) induction in human cells (in vitro human blood cell system, interferon by bioassay)
# Assay type: cell-based
# Condition label: Dose Concentration 0.05 μg/mL; human PBM's, 48 hours
Where a name gives a salt, the structure may show the parent alone.
Measured property: Interferon (α) Induction in Human Cells

INSERT INTO results (compound, measured_property, measurement) VALUES
  ('CC(C)c1nc2c(N)nc3ccccc3c2s1', 'Interferon (α) Induction in Human Cells', '−'),
  ('CCc1nc2c(N)nc3ccccc3c2s1 [Example 8, 2-Ethylthiazolo[4,5-c]quinolin-4-amine]', 'Interferon (α) Induction in Human Cells', '−'),
  ('CCCCCc1nc2c(N)nc3ccccc3c2s1 [Example 16, 2-Pentylthiazolo[4,5-c]quinolin-4-amine]', 'Interferon (α) Induction in Human Cells', '−'),
  ('Nc1nc2ccccc2c2sc(N3CCOCC3)nc12', 'Interferon (α) Induction in Human Cells', '−'),
  ('CCCc1nc2c(N)nc3cc(F)ccc3c2o1', 'Interferon (α) Induction in Human Cells', '−'),
  ('CCc1nc2c(N)nc3ccccc3c2o1 [Example 39, 2-Ethyloxazolo [4,5-c]quinolin-4-amine]', 'Interferon (α) Induction in Human Cells', '−'),
  ('Nc1nc2ccccc2c2sc(Cc3ccccc3)nc12 [Example 34, Hydrochloride]', 'Interferon (α) Induction in Human Cells', '−'),
  ('CCCc1nc2c(N)nc3ccc(N)cc3c2s1', 'Interferon (α) Induction in Human Cells', '−'),
  ('Nc1nc2ccccc2c2sc(/C=C/c3ccccc3)nc12', 'Interferon (α) Induction in Human Cells', '−'),
  ('CCOCc1nc2c(N)nc3ccccc3c2s1', 'Interferon (α) Induction in Human Cells', '−'),
  ('Nc1nc2ccccc2c2sc(N3CCCC3)nc12', 'Interferon (α) Induction in Human Cells', '−'),
  ('CC(C)Cc1nc2c(N)nc3ccccc3c2s1', 'Interferon (α) Induction in Human Cells', '−'),
  ('CCCc1nc2c(N)nc3ccc(C)cc3c2s1', 'Interferon (α) Induction in Human Cells', '−'),
  ('CCCc1nc2c(N)nc3cc(C)ccc3c2s1', 'Interferon (α) Induction in Human Cells', '+'),
  ('Nc1nc2ccccc2c2sc(CCc3ccccc3)nc12', 'Interferon (α) Induction in Human Cells', '−'),
  ('Nc1nc2ccccc2c2sc(CO)nc12', 'Interferon (α) Induction in Human Cells', '−'),
  ('CC(C)(Cc1nc2c(N)nc3ccccc3c2s1)OC(N)=O', 'Interferon (α) Induction in Human Cells', '−'),
  ('CCCc1nc2c(N)nc3ccccc3c2o1 [Example 43, 2-Propyloxazolo[4,5-c]quinolin-4-amine]', 'Interferon (α) Induction in Human Cells', '+');

###

# Test system: interferon (α)
# Experimental protocol: Cytokine induction in human cells: interferon (α) secreted by PBMCs (ELISA or bioassay)
# Format: cell-based
# Condition label: Dose Concentration 10 μM, 18 to 24 hours
Counter-ions that a name gives are not always drawn.
Measured property: Interferon (α) Induction

INSERT INTO results (molecule, measurement) VALUES
  ('CCCCc1nc2c(N)nc3cccnc3c2s1', '±'),
  ('CCCc1nc2c(N)nc3cc(OC)ccc3c2s1', '+'),
  ('CCCc1nc2c(N)nc3ccc(N)cc3c2s1', '+'),
  ('CCCc1nc2c(N)nc3cccnc3c2s1', '−'),
  ('CCCCc1nc2c(N)nc3ccccc3c2s1 [Example 18, 2-Butylthiazolo[4,5-c]quinolin-4-amine]', '+'),
  ('Nc1nc2ccccc2c2sc(CCc3ccccc3)nc12', '−'),
  ('CCCc1nc2c(N)nc3cc(Cl)ccc3c2s1', '+'),
  ('CCCc1nc2c(N)nccc2s1 [Example 62, Trifluoroacetate]', '−'),
  ('CC(C)c1nc2c(N)nc3ccccc3c2s1', '−'),
  ('Nc1nc2ccccc2c2sc(N3CCOCC3)nc12', '−');

###

# Test system: interferon (α)
# Experimental protocol: Interferon (α) induction in human cells (in vitro human blood cell system, interferon by bioassay)
# Type: cell-based
# Condition label: Dose Concentration 0.50 μg/mL; human PBM's, 48 hours
Where a name gives a salt, the structure may show the parent alone.
Measured property: Interferon (α) Induction in Human Cells

INSERT INTO assay_data (molecule, target_of_assay, measured_property, measurement) VALUES
  ('CCc1nc2c(N)nc3ccccc3c2s1 [Example 8, 2-Ethylthiazolo[4,5-c]quinolin-4-amine]', 'interferon (α)', 'Interferon (α) Induction in Human Cells', '+'),
  ('Cc1nc2c(N)nc3ccccc3c2s1.Cl [Example 4]', 'interferon (α)', 'Interferon (α) Induction in Human Cells', '+'),
  ('CCCc1nc2c(N)nc3ccc(C)cc3c2s1 [Example 36]', 'interferon (α)', 'Interferon (α) Induction in Human Cells', '−'),
  ('CCCc1nc2c(N)nc3cc(C)ccc3c2s1 [Example 45]', 'interferon (α)', 'Interferon (α) Induction in Human Cells', '+'),
  ('Nc1nc2ccccc2c2sc(N3CCCC3)nc12 [Example 54]', 'interferon (α)', 'Interferon (α) Induction in Human Cells', '−'),
  ('CCCc1nc2c(N)nc3cc(C(F)(F)F)ccc3c2s1 [Example 50]', 'interferon (α)', 'Interferon (α) Induction in Human Cells', '+'),
  ('CC(C)(Cc1nc2c(N)nc3ccccc3c2s1)OC(N)=O [Example 26]', 'interferon (α)', 'Interferon (α) Induction in Human Cells', '−'),
  ('CC(C)c1nc2c(N)nc3ccccc3c2s1 [Example 20]', 'interferon (α)', 'Interferon (α) Induction in Human Cells', '−'),
  ('CCCCc1nc2c(N)nc3ccccc3c2s1 [Example 18, 2-Butylthiazolo[4,5-c]quinolin-4-amine]', 'interferon (α)', 'Interferon (α) Induction in Human Cells', '+'),
  ('Cl.Nc1nc2ccccc2c2scnc12.O [Example 5]', 'interferon (α)', 'Interferon (α) Induction in Human Cells', '−'),
  ('CCCCc1nc2c(N)nc3ccccc3c2o1 [Example 41, 2-Butyloxazolo[4,5-c]quinolin-4-amine]', 'interferon (α)', 'Interferon (α) Induction in Human Cells', '+'),
  ('Nc1nc2ccccc2c2sc(Cc3ccccc3)nc12 [Example 34, Hydrochloride]', 'interferon (α)', 'Interferon (α) Induction in Human Cells', '−'),
  ('CCCc1nc2c(N)nc3cc(C)ccc3c2o1 [Example 47]', 'interferon (α)', 'Interferon (α) Induction in Human Cells', '+'),
  ('CCc1nc2c(N)nc3ccccc3c2o1 [Example 39, 2-Ethyloxazolo [4,5-c]quinolin-4-amine]', 'interferon (α)', 'Interferon (α) Induction in Human Cells', '+'),
  ('Nc1nc2ccccc2c2sc(N3CCOCC3)nc12 [Example 53]', 'interferon (α)', 'Interferon (α) Induction in Human Cells', '−'),
  ('CC(C)Cc1nc2c(N)nc3ccccc3c2s1 [Example 32]', 'interferon (α)', 'Interferon (α) Induction in Human Cells', '+'),
  ('CCCCCc1nc2c(N)nc3ccccc3c2s1 [Example 16, 2-Pentylthiazolo[4,5-c]quinolin-4-amine]', 'interferon (α)', 'Interferon (α) Induction in Human Cells', '−'),
  ('CCCc1nc2c(N)nc3cc(F)ccc3c2o1 [Example 48]', 'interferon (α)', 'Interferon (α) Induction in Human Cells', '+'),
  ('CCCc1nc2c(N)nc3ccc(N)cc3c2s1 [Example 42]', 'interferon (α)', 'Interferon (α) Induction in Human Cells', '+'),
  ('Cc1nc2c(N)nc3ccccc3c2o1 [Example 38, 2-Methyloxazolo[4,5-c]quinolin-4-amine]', 'interferon (α)', 'Interferon (α) Induction in Human Cells', '+');
